Reference for the values: paper PMC12416549

Each record here notes measured apparent Kd (screen).
Biological target: T1, TNFR1 (Homo sapiens, UniProt P19438)
T1 chain: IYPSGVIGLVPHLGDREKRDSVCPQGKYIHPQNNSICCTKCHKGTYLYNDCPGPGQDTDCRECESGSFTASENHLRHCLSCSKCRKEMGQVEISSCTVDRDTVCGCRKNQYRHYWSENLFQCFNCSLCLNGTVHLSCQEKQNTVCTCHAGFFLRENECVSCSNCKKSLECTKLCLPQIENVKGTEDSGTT
Assay: yeast display SC50
Your answer should be a plain number; it is taken to be in nM.

V55C (designed binder) MTLQELLREEALRRAEAEAFRYALELLAEKFPEQKEYLLDLAEEIESQIRSLSGCDVEDVRKFLDKEWAWVKELLAEHPAELAEVEAARAARLAELRAEVEAKVAA	0.79
A80I (designed binder) MTLQELLREEALRRAEAEAFRYALELLAEKFPEQKEYLLDLAEEIESQIRSLSGVDVEDVRKFLDKEWAWVKELLAEHPIELAEVEAARAARLAELRAEVEAKVAA	0.593

Next binder, please.
Asked: Tell me measured apparent Kd (screen) for A17Y (designed binder) MTLQELLREEALRRAEYEAFRYALELLAEKFPEQKEYLLDLAEEIESQIRSLSGVDVEDVRKFLDKEWAWVKELLAEHPAELAEVEAARAARLAELRAEVEAKVAA please.
Given back: 0.593
